Target: Avi-humanTEAD4^217-434 / Cy5 labeled humanYAP^60-100 (Homo sapiens (Human))
Sequence (Q15561 217-434): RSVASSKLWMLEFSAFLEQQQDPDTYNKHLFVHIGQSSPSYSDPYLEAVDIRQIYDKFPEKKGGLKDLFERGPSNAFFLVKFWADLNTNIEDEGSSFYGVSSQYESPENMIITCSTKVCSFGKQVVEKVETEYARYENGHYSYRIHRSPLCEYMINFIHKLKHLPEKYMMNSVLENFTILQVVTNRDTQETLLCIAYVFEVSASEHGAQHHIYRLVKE
Test: In-vitro biochemical TR-FRET assay (TEAD4/YAP)
Conditions: 1 h at room temperature
Description: N-terminus Cy5 labeled humanYAP^60-100 (20 nM) was then added to this preparation. Compounds were dissolved at 10 mM in 100% DMSO and serial dilutions were made in 100% DMSO. The diluted compound solutions were incubated in white 384-well plates (Greiner Bio-One) for 1 h at room temperature with the above described mix. The final DMSO concentration present in the assay was 1%. […] The IC50 values were estimated by fitting the data by nonlinear fit regression (GraphPad Prism).
# IC50 per entry
Returns: string containing the numeric result and its unit.

Known results for molecules:
>>> observed_measurement("CNC(=O)c1cnc(OCCOCCOCCn2cc(-c3ccc4c(c3)CN(C3CCC(=O)NC3=O)C4=O)nn2)c(F)c1-c1c(Cl)c(F)cc2c1C[C@](c1ccccc1)([C@@H]1CCCN1)O2 (stereo partly shown)")
"94 nM"
>>> observed_measurement("CN[C@@H](C)C(=O)N[C@H](C(=O)N1C[C@@H](NCC(=O)N[C@H]2CC[C@H](NC(=O)[C@H]3CC[C@H](NC[C@]4(c5ccccc5)Oc5cc(F)c(Cl)c(-c6c(C(N)=O)ccc(OC)c6F)c5[C@@H]4C)CC3)CC2)C[C@H]1C(=O)N[C@@H]1CCCc2ccccc21)C1CCCCC1 (atropisomer, axis not shown)")
"2.3 nM"
>>> observed_measurement("COc1ccc(C(N)=O)c(-c2c(Cl)c(F)cc3c2[C@H](C)[C@@](CN[C@H]2CC[C@H](C(=O)N4CCC(CC5CCN(C(=O)COc6ccc(Cl)c(N7CCC(=O)NC7=O)c6)CC5)CC4)CC2)(c2ccccc2)O3)c1F (atropisomer, axis not shown)")
"2.7 nM"

I have this molecule here, COc1ccc(C(N)=O)c(-c2c(Cl)c(F)cc3c2[C@H](C)[C@@](CN[C@H]2CC[C@H](C(=O)N4CCC(CC5CCN(C(=O)COc6ccc(N7CCC(=O)NC7=O)cc6)CC5)CC4)CC2)(c2ccccc2)O3)c1F (atropisomer, axis not shown) , and I need its recorded IC50. 2.4 nM
